- Study target: human orexin-1 receptor (Homo sapiens (Human), UniProt O43613)
- Sequence (O43613 whole entry): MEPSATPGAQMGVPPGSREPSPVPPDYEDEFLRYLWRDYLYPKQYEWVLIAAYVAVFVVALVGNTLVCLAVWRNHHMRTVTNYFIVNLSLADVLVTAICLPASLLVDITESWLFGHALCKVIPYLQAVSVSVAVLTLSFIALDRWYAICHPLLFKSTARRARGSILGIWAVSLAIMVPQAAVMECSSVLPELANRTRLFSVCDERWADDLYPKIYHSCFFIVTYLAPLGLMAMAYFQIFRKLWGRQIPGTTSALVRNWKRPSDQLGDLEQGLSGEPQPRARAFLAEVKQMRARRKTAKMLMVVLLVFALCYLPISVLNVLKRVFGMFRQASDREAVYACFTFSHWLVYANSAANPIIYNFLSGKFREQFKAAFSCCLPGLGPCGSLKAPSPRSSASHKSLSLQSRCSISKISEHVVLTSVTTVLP
- Test details: In vitro assay: intracellular calcium measurements (FLIPR), antagonistic activity
- Conditions used: CHO cells expressing human orexin-1 receptor, orexin-A agonist, geometric mean, read-out: IC50 Ox1

Compound | Study target | IC50 (nM)
CO[C@@H]1C[C@@H](c2nc3c(C)c(Cl)ccc3[nH]2)N(C(=O)c2cc(C)ccc2-n2nccn2)C1 [Ex. 3.2] | human orexin-1 receptor (Homo sapiens (Human), UniProt O43613) | 13
COc1ccc(-c2ccccc2F)c(C(=O)N2CCC[C@@]2(C)c2nc3c(C)c(Cl)ccc3[nH]2)c1F [Ex. 5.298] | human orexin-1 receptor (Homo sapiens (Human), UniProt O43613) | 15
C=C1C[C@@H](c2nc3cccc(C)c3[nH]2)N(C(=O)c2nc(C)sc2-c2cccc(Br)c2)C1 [Ex. 6.104] | human orexin-1 receptor (Homo sapiens (Human), UniProt O43613) | 13

----------
- Study target: human orexin-1 receptor (Homo sapiens (Human))
- Test details: In vitro assay: intracellular calcium measurements (FLIPR), antagonistic activity
- Assay type: cell-based
- Conditions used: CHO cells expressing human orexin-1 receptor, orexin-A agonist, geometric mean, read-out: IC50 Ox1
Value type: log10 IC50 (log10 of the value in nM)

Compound | Study target | log10 IC50
COc1ccc2[nH]c([C@@H]3CCCN3C(=O)c3nc(C)ccc3-n3nccn3)nc2c1 [Ex. 1.173] | human orexin-1 receptor (Homo sapiens (Human)) | 3.59
CSc1ccc2[nH]c([C@@H]3CCCN3C(=O)c3cc(C)ccc3-n3nccn3)nc2c1 [Ex. 1.7] | human orexin-1 receptor (Homo sapiens (Human)) | 1.97
C=C1C[C@@H](c2nc3cc(OC)ccc3[nH]2)N(C(=O)c2nc(C)sc2-c2ccccc2)C1 [Ex. 6.3] | human orexin-1 receptor (Homo sapiens (Human)) | 2.39
C[C@@]1(c2nc3cc(C(F)(F)F)c(Cl)cc3[nH]2)CCCN1C(=O)c1c(F)cccc1-n1nccn1 [Ex. 5.133] | human orexin-1 receptor (Homo sapiens (Human)) | 1.04
CSc1ccc2nc([C@@H]3CCCN3C(=O)c3cncnc3-c3ccc(Br)c(Cl)c3)[nH]c2c1 [Ex. 1.54] | human orexin-1 receptor (Homo sapiens (Human)) | 2.86
Cc1nc(C(=O)N2CC[C@H](C)[C@H]2c2nc3c(C)c(Cl)ccc3[nH]2)c(-c2ccc(F)cc2)s1 [Ex. 4.70] | human orexin-1 receptor (Homo sapiens (Human)) | -0.22
C=C1CC(c2nc3cccc(SC)c3[nH]2)N(C(=O)c2cc(C)sc2-c2ccc(C)c(C)c2)C1 (racemic) [Ex. 6.72] | human orexin-1 receptor (Homo sapiens (Human)) | 0.60

----------
# pIC50 listing for each entry below
- Study target: UniProt O43613
- Test details: In vitro assay: intracellular calcium measurements (FLIPR), antagonistic activity
- Conditions used: CHO cells expressing human orexin-1 receptor, orexin-A agonist, geometric mean, read-out: IC50 Ox1
pIC50: −log10 of the molar value.

Compound | pIC50
Cc1nc(C(=O)N2CCCC2c2nc3c(CO)cccc3[nH]2)c(-c2cccc(Cl)c2)s1 (centres unmarked) | 6.44
Cc1nc(C(=O)N2C[C@H](F)C[C@H]2c2nc3c(C)cccc3[nH]2)c(-c2ccccc2)s1 | 7.17
Cc1c(Cl)ccc2nc([C@]3(C)CCCN3C(=O)c3c(F)cccc3-c3ccccc3)[nH]c12 | 7.80
C=C1C[C@@H](c2nc3cc(C(C)(C)C)ccc3[nH]2)N(C(=O)c2nc(C)sc2-c2ccc(C)c(C)c2)C1 | 7.96
C[C@@]1(c2nc3cc(C(F)(F)F)ccc3[nH]2)CCCN1C(=O)c1cc(-c2cccnc2)ccc1-c1ccccc1 | 8.05
COc1cc2nc([C@@H]3[C@@H](C)CCN3C(=O)c3sc(C)nc3-c3ccc(C)cc3)[nH]c2cc1OC | 7.00
COc1ccc2nc([C@@H]3CCCN3C(=O)c3nc(C)sc3-c3cccc(Cl)c3Cl)[nH]c2c1 | 6.18
Cc1ccc(-n2nccn2)c(C(=O)N2CCC[C@@]2(C)c2nc3c(C)cccc3[nH]2)c1 | 7.49
C=C1CC(c2nc3cccc(Cl)c3[nH]2)N(C(=O)c2cc(C)sc2-c2ccc(C)c(C)c2)C1 (centres unmarked) | 8.10
COc1cccc(-c2ccc(OC)c(F)c2C(=O)N2CCC[C@@]2(C)c2nc3c(C)c(Cl)ccc3[nH]2)c1 | 7.60
Cc1cccc2[nH]c([C@]3(C)CCCN3C(=O)c3cc(Cl)ccc3-n3nccn3)nc12 | 7.07
COc1cc2nc([C@]3(C)CCCN3C(=O)c3cc(C)ccc3-n3nccn3)n(CCF)c2cc1OC | 7.48
Cc1nc(C(=O)N2CCCC2c2nc3c(Br)cccc3[nH]2)c(-c2ccccc2)s1 (centres unmarked) | 6.95
C=C1C[C@@H](c2nc3cc(OC)ccc3[nH]2)N(C(=O)c2nc(C)sc2-c2ccc(OC)cc2)C1 | 6.65
